# reported cytotoxicity at 10 µM; entries follow
# assay_remarks: Toxicity liver stage against HepG2, at 10uM
# Assay type: cell-based
# Design: test concentration 10 uM, cell line HepG2-A16-CD81EGFP
# assay_setup: human, HepG2-A16-CD81EGFP cells; read-out: INHIBITION
readout: cytotoxicity at 10 µM

>>> df
                                    compound                readout   result
 0  O=C(NCCCSC1CCCCC1)C1NCCc2[nH]cnc21 (centres undefined)  cytotoxicity at 10 µM  -0.283%
 1  Cc1nc(CN2CCN(c3ccc4nncn4n3)C(C)C2)oc1C (centres undefined)  cytotoxicity at 10 µM   -2.91%
 2  CN1C(=O)C2(CCN(Cc3cccnc3)CC2)c2cccc(F)c21  cytotoxicity at 10 µM    6.77%
 3  Cc1ccc(NCCCNC(=O)NCc2c(C)cc(C)[nH]c2=O)nc1  cytotoxicity at 10 µM   -45.2%
 4  CC(C)[C@@H]1CN(C(=O)CCc2ccc(F)cc2)C[C@H]1C(=O)O  cytotoxicity at 10 µM   -3.97%
 5  O=C1CN(C(=O)c2ccc(F)cc2)CC(O)CN1Cc1cccs1 (centres undefined)  cytotoxicity at 10 µM   -67.7%
 6  COc1ccccc1CC1CCCN(CCC#N)C1 (centres undefined)  cytotoxicity at 10 µM    1.73%
 7            Cc1ccnc(C2CN(c3ccnc(C)n3)C2)n1  cytotoxicity at 10 µM    -2.4%
 8  Cc1cccc(CN2C(=O)CO[C@@H]3CN(Cc4nccn4C)C[C@H]32)c1  cytotoxicity at 10 µM   -16.7%
 9  CCN1CC2(CC1=O)CN(C(C)=O)CCN(C(=O)NC(C)C)C2 (centres undefined)  cytotoxicity at 10 µM    8.95%
10             O=C(NCc1cc(Br)cs1)Nc1cn[nH]c1  cytotoxicity at 10 µM    5.85%
11  O=c1[nH]c2ccc(S(=O)(=O)N(CCO)Cc3ccncc3)cc2[nH]1  cytotoxicity at 10 µM    1.07%
12  COCC(=O)N1C[C@H]2CNC[C@@]2(C(=O)NCc2c(C)noc2C)C1  cytotoxicity at 10 µM   0.753%
13  CC(NC(=O)Cn1cccn1)c1ccc2c(c1)OCCCO2 (centres undefined)  cytotoxicity at 10 µM   -2.55%
14       Cc1nn(C)c(Cl)c1CNCCOc1ccc2c(c1)OCO2  cytotoxicity at 10 µM    1.52%
15  CCC(NC(=O)CNC(=O)OC)c1cc(F)ccc1F (centres undefined)  cytotoxicity at 10 µM   -5.03%
16                CCOCCCNC(=O)CCSCc1csc(C)n1  cytotoxicity at 10 µM   -3.57%
17             Cn1cnc(S(=O)(=O)N2CCOCC2)c1Cl  cytotoxicity at 10 µM     5.9%
18  Cc1noc(C)c1CCC(=O)N1CCOCC1CC(=O)N1CCCC1 (centres undefined)  cytotoxicity at 10 µM   0.282%
19  CS(=O)(=O)N1CCC(NC(=O)COc2ccc3ccccc3c2)CC1  cytotoxicity at 10 µM   -5.56%
20  Nc1nccnc1C1CN(C(=O)c2cnccn2)CCO1 (centres undefined)  cytotoxicity at 10 µM   -9.17%
21  Cc1c[nH]cc1C(=O)N1CCN(Cc2nc(C(C)C)no2)CC1  cytotoxicity at 10 µM   -4.54%
22  Cc1nc(CN2CCO[C@H]3[C@@H](Oc4ccccn4)CC[C@@H]32)cs1  cytotoxicity at 10 µM     2.4%
23  O=C(NCCC(O)c1ccco1)c1ccccc1Br (centres undefined)  cytotoxicity at 10 µM   0.957%

// data source = ChEMBL document CHEMBL4513216
